Reported values of TGI for individual entries
System: RPMI-8226 leukemia
Assay Notes: NCI tumour cell line growth inhibition, 48 h

query: Data request, read-out TGI, for O=C1NC(=Nc2ccccc2Cl)N/C1=C\c1ccc(Cl)cc1Cl
result: > 100 µM

query: What do we get for C=CCCC(=O)C(=[N+]=[N-])C(=O)CCC(=O)c1ccccc1 ?
result: > 10 µM

query: What do we get for COC(=O)CCC(=O)N1CC1C (stereo not drawn) ?
result: > 100 µM

###

Tested on: SK-MEL-2 melanoma
Assay Notes: NCI tumour cell line growth inhibition, 48 h
Quantity: TGI

Worked examples follow.
>>> experimental_value("COc1cc(-c2cc3ncccc3c3[nH]c(=O)c4cccnc4c23)cc(OC)c1OC")
"> 100 µM"
>>> experimental_value("COc1cc(OC)c(C2(c3c(OC(C)C)c(=O)c3=O)SCCCS2)cc1OC")
"> 100 µM"
>>> experimental_value("CCC(C)(O)c1cn(-c2ccc(S(=O)(=O)O)cc2)nn1 (centres undefined)")
"> 100 µM"
>>> experimental_value("COc1ccc2c(c1)[n+](=O)c(C(=O)CC(=O)C(=O)Nc1cccc(C)c1C)c(C)n2[O-]")
"> 100 µM"
>>> experimental_value("COC(=O)N/N=C(\\C)C(CN(C)C)C(c1ccccc1)c1c(O)c2ccccc2oc1=O (centres undefined)")
"> 100 µM"

query: Data request, read-out TGI, for O=C(/C=C\n1cnc(-c2cc(C(F)(F)F)cc(C(F)(F)F)c2)n1)N1CC(F)(F)C1
result: 1.58 µM

query: What do we get for CCOC(=O)/C=C(/C(=O)OCC)n1ccc(=O)n(Cc2cnnn2CCCCOC(C)=O)c1=O ?
result: > 100 µM

query: What do we get for COc1ccc2[nH]c(C(=O)OCc3ccc4cccc(O)c4n3)cc2c1 ?
result: 3.72 µM

query: What do we get for COc1ccccc1C1C(C#N)=C(N)Oc2cc(O)ccc21 (centres undefined) ?
result: > 100 µM

###

Test system: OVCAR-3 ovarian
Assay Notes: NCI tumour cell line growth inhibition, 48 h
Quantity: TGI (µM)
Response body: numeric value in µM, unit text excluded.

Worked examples follow.
>>> experimental_value("CC/C(Cc1ccccc1)=C(/c1ccc(O)cc1)c1ccc(OCCN2CCCC2)cc1")
3.46
>>> experimental_value("COc1ccc2c(c1OC)C(=O)O[C@@H]2[C@H]1c2c(cc3c(c2OC)OCO3)CCN1C")
49.9
>>> experimental_value("S=C(CSc1ccccc1)Nc1cccc2ccccc12")
88.7

query: Data request, read-out TGI, for COC(=O)CNC(=O)CCC(C)[C@H]1CCC2C3C(C[C@H](OC(C)=O)[C@@]21C)[C@@]1(C)CCC2(C[C@H]1C[C@H]3OC(C)=O)OOC1(CCCCC1)OO2 (stereo not given in full)
result: 3.77

###

Tested on: SF-295 CNS
Assay Notes: NCI tumour cell line growth inhibition, 48 h
Quantity: TGI

Worked examples follow.
>>> experimental_value("CCNC(=S)NNC(=O)CSc1nc2ccc(I)cc2c(=O)n1Cc1ccccc1")
"> 100 µM"
>>> experimental_value("C=C1C(=O)O[C@H]2[C@H]1CC/C(COC(=O)NCCc1cccc(OC)c1)=C\\CC[C@@]1(C)O[C@@H]21")
"20.4 µM"
>>> experimental_value("CC(C)C(=S)N(C)O")
"> 100 µM"

query: Form field: TGI recorded for O=C1NC(=Nc2ccccc2Cl)N/C1=C\c1ccc(Cl)cc1Cl with SF-295 CNS (enter value)
result: > 100 µM

query: What do we get for C[n+]1ccccc1/C1=c2\cc/c([nH]2)=C(\c2cccc[n+]2C)C2=N/C(=C(/c3cccc[n+]3C)C3C=CC(N3)/C(c3cccc[n+]3C)=C3/C=CC1=N3)C=C2 ?
result: > 100 µM
